The measurements presented in this section are drawn from patent US20240270701A1.

Emax listing for selected molecules.
Target: B2-AR (Homo sapiens, UniProt P07550)
Construct: expressed in transfected cells; host or cells: CHO-K1
Sequence (P07550 whole entry, species assumed): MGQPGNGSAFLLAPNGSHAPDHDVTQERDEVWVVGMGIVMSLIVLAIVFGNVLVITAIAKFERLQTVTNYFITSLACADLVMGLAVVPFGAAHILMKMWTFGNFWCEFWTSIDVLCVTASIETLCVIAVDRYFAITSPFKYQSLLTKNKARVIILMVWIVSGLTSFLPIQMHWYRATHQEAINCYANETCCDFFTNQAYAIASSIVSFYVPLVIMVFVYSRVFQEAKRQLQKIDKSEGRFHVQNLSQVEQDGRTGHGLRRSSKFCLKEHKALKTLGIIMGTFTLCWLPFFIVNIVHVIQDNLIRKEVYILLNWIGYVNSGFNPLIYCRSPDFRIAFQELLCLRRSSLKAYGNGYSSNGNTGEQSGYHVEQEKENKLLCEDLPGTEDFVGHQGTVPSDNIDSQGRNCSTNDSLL
Experiment: cAMP Gs dynamic HTRF assay, cells expressing beta-adrenergic receptor (CHO-K1), B2-AR
Type: cell-based
Conditions: CHO-K1 cells, relative to full agonist isoproterenol; read-out: Emax (% iso) (%) [B2-AR]

For orientation, consider the following solved cases.
CC(C)NC[C@H](O)c1cccc2[nH]nc(Cl)c12 [I-101]	> 90%
Cc1n[nH]c2cccc([C@@H](O)CNC3(C)CCC3)c12 [I-168]	70 to 90%
CCC(C)(CC)NC[C@H](O)c1cccc2[nH]nc(F)c12 [I-30]	> 90%
Cn1ccc(CNC[C@H](O)c2cccc3[nH]nc(F)c23)n1 [I-78]	> 90%

Proceeding to the next molecule to report its Emax.
Field request: Emax | item: CC(C)(NC[C@H](O)c1cccc2[nH]ncc12)C1CC1 [I-12]
> 90%

----------
Target: B1-AR (Homo sapiens, UniProt P08588)
Construct: expressed in transfected cells; host or cells: CHO-K1
Sequence (P08588 whole entry, species assumed): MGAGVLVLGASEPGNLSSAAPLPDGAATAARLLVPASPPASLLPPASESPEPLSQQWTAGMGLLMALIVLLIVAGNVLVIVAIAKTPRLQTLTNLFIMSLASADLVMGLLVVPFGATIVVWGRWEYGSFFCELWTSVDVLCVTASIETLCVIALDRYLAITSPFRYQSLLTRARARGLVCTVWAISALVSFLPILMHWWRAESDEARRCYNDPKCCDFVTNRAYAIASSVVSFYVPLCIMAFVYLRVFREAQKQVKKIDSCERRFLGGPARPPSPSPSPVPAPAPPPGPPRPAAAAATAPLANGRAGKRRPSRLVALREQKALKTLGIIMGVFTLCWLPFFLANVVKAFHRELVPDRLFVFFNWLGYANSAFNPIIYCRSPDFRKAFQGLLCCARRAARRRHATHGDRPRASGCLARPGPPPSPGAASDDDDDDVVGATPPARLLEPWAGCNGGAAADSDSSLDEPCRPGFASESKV
Assay: cAMP Gs dynamic HTRF assay, cells expressing beta-adrenergic receptor (CHO-K1), B1-AR
Assay type: cell-based
Settings: relative to full agonist isoproterenol, read-out: Emax (% iso) (%) [B1-AR]
Emax listing for selected compounds.

For orientation, consider the following solved cases.
Cc1ncccc1[C@@H](O)CNCC(C)C [I-183]	< 50%
Cc1c(Cl)[nH]c2cccc([C@@H](O)CNC(C)(C)C)c12 [I-115]	70 to 90%
Cc1nc(N)ccc1[C@@H](O)CNC(C)(C)C [I-150]	> 90%
Cc1ncccc1[C@@H](O)CNC(C)(C)CO [I-176]	50 to 70%
CC(C)CNC[C@H](O)c1cccc2[nH]cc(F)c12 [I-111]	> 90%

Field request: Emax | item: CC(C)(C)NC[C@H](O)c1cc(C(F)F)cc2[nH]ncc12 [I-123]
70 to 90%

Field request: Emax | item: Cc1cc([C@@H](O)CNC(C)(C)C)cc2cccnc12 [I-71]
50 to 70%

----------
Molecular target: B2-AR (Homo sapiens, UniProt P07550)
Construct: expressed in transfected cells; host or cells: CHO-K1
Assay: cAMP Gs dynamic HTRF assay, cells expressing beta-adrenergic receptor (CHO-K1), B2-AR
Assay type: cell-based
Conditions: CHO-K1 cells, cAMP HTRF; read-out: pEC50 [B2-AR] (converted)
EC50 listing for selected molecules.

C[C@H](NC[C@H](O)c1cccc2c1C(F)(F)C(=O)N2)C(C)(C)C	10 to 100 nM
C[C@H](NC[C@H](O)c1cccc2[nH]ncc12)C1CC1	< 10 nM
CC1(NC[C@H](O)c2cccc3[nH]cc(F)c23)CC1	< 10 nM
CC(C)[C@@H](C)NC[C@H](O)c1cccc2[nH]nc(F)c12	< 10 nM

Field request: EC50 | item: CC(C)(C)NC[C@H](O)c1cc(F)cc2[nH]cnc12
10 to 100 nM

----------
Biological target: B2-AR (Homo sapiens)
Construct: expressed in transfected cells; host or cells: CHO-K1
Test: cAMP Gs dynamic HTRF assay, cells expressing beta-adrenergic receptor (CHO-K1), B2-AR
Type: cell-based
Conditions: CHO-K1, CHO-K1 cells, relative to full agonist isoproterenol; read-out: Emax (% iso) (%) [B2-AR]
Emax listing for selected compounds.

For orientation, consider the following solved cases.
CCC(C)(CC)NC[C@H](O)c1ccc(F)c2[nH]ncc12	> 90%
CC(C)(C)NC[C@H](O)c1cc(C(F)F)cc2[nH]ncc12	70 to 90%
CCC(CC)NC[C@H](O)c1cccc2[nH]ncc12	> 90%
CC(C)CNC[C@H](O)c1cccc2[nH]ncc12	> 90%
Cc1ncccc1[C@@H](O)CNC(C)C	70 to 90%
CCC(C)(C)NC[C@H](O)c1cccnc1C	70 to 90%
CC(C)(C)C(C)(C)NC[C@H](O)c1cc(C#N)cc2[nH]ncc12	> 90%
C[C@H](NC[C@H](O)c1cccc2[nH]ncc12)C(C)(C)C	> 90%

Proceeding to the next compound to report its Emax.
Field request: Emax | item: CCC(C)(C)NC[C@H](O)c1cccc2[nH]nc(F)c12
> 90%
